System Name: Human autotaxin enzyme (Homo sapiens, UniProt Q13822)
Construct: purchased R&D System
Measurement Description: Evaluation of autotaxin inhibitor, 18:0 Lyso PC / choline assay (Test Example 2)
Assay type: biochemical
Test Conditions: human autotaxin enzyme, 18:0 Lyso PC substrate, choline assay, room temperature 2 hours; read-out: Inhibitor activity (IC50)
pIC50: −log10 of the molar value.
Provide the recorded pIC50 for the entries that follow.

Looking up CCCCCc1nc(-c2ccc(Cl)cc2)cc(=O)n1CC(=O)N1CCOC[C@H]1C(=O)O [Compound I-0067] , I found its pIC50 recorded as 6.00 to 7.00

Looking up CCCCCc1nc(-c2ccc(Cl)cc2)[nH]c(=O)c1Cc1cccc(C(=O)O)c1 [Compound I-0003] , I found its pIC50 recorded as 6.00 to 7.00

Looking up C[C@@H]1COC[C@H](C)N1C(=O)c1cccc(Cn2c(CCCC(F)(F)F)nc(-c3ccc(Cl)cc3)cc2=O)c1 [Compound I-0199] , I found its pIC50 recorded as 7.00 to 8.00

Looking up Cc1nc(-c2ccc(Cl)cc2NC(=O)C2CC2)cc(=O)n1CC(=O)NC1(c2ccc(F)cc2)COC1 [Compound I-0484] , I found its pIC50 recorded as 7.00 to 8.00
